test: NCI Yeast Anticancer Drug Screen. Data for the sgs1 mgt1 strain (AID 161);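 also: 0% = growth of cultures given vehicle only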; details: S. cerevisiae sgs1 mgt1 strain, at 50.0 µM (retest, dose inferred, filed as 5.0), stronger effect = higher value
This is part of a sample that, as a whole, favours compounds with a hit. Of some 79,000 tested, about 15% had one in any assay.
Assign growth inhibition to each entry below.
Numeric answer only, unit % assumed.

Request: For the compound `Oc1cc(Cl)ccc1Cc1ccc(Cl)cc1O` , give its reported growth inhibition.
Result: 100

Request: Please supply the value of reported growth inhibition for the item CCCCCCCCCCCC1N=C(N)N=C(N)N1c1cccc(Br)c1 (configuration not stated)
Result: 98

Request: Specify measured growth inhibition for `NC1=C(Br)C(=O)c2ncccc2C1=O` .
Result: 93

Request: Note down growth inhibition recorded for NC(CS/C(Cl)=C/Cl)C(=O)O (configuration not stated)
Result: 94

Request: For the compound O=C(CBr)C(Br)C(Br)c1ccccc1 (configuration not stated) , give its reported growth inhibition.
Result: 98

Request: Consider the compound `Clc1ccc(-n2ncc3c(NCCCN4CCOCC4)ncnc32)cc1` and give its recorded growth inhibition.
Result: 81

Request: Name the recorded growth inhibition of the compound listed here: `CCNc1nnnn1CC`
Result: 5

Origin of the recorded values: PubChem BioAssay (NCI)
